Catalogue of GI50 readings, one per entry.
system: KM12; test: NCI tumour cell line growth inhibition, 48 h
Active and inactive are the calls of the source. Rule as the data show it: active = GI50 up to about 1.1 µM and inactive = higher.

- MOLECULE: "COc1ccc(Cc2c(=O)[nH]nc3ccccc23)cc1"
  GI50: "> 100 µM (inactive)"
- MOLECULE: "Nc1nc(Cl)c(Cl)c(NCC2(O)CCC2)n1"
  GI50: "> 100 µM (inactive)"
- MOLECULE: "Cc1ccc(C[P+]2(c3ccccc3)CCCCC2)cc1.[O-][Cl+3]([O-])([O-])[O-]"
  GI50: "28.5 µM (inactive)"
- MOLECULE: "CC(=O)c1sc(-c2nc(C)c(C(=O)/C=C\\c3ccc(/C=C\\C(=O)c4sc(-c5nc(C)c(C(C)=O)s5)nc4C)cc3)s2)nc1C"
  GI50: "> 100 µM (inactive)"
- MOLECULE: "O=C1OC(C2=CC(=O)c3ccccc3C2=O)C(Cl)=C1Cl (stereo not given)"
  GI50: "77.4 µM (inactive)"
- MOLECULE: "O=C(O)CN1C(=O)c2ccc(NC(=O)C(=O)O)cc2S1(=O)=O"
  GI50: "> 100 µM (inactive)"
- MOLECULE: "Cc1ccc(S(=O)(=O)NC(CCC(=O)NN)C(=O)NN)cc1 (stereo not given)"
  GI50: "> 100 µM (inactive)"
- MOLECULE: "Cc1ccc(C(=O)O/N=C2/CCCCC2CN(C)C)cc1 (stereo not given)"
  GI50: "> 100 µM (inactive)"
- MOLECULE: "CN(C)CC(C)(C)C(=O)/C=C/c1ccc(/C=C/C(=O)C(C)(C)CN(C)C)cc1"
  GI50: "1.85 µM (inactive)"
- MOLECULE: "CC(C)(C)C(=O)O[C@H]1C=C[C@@H](O)[C@@H]2[C@H]1[C@@H]1C=C[C@H]2C1"
  GI50: "2.63 µM (inactive)"
